The reported measurements were obtained from patent US20220380463A1.

Subject of test: T1, Cynomolgus CD3εδ Fc heterodimer (Cy CD3ε Fc / CD3δ Fc-HIS) (cynomolgus, UniProt Q95LI8 22-100)
T1 chain 1: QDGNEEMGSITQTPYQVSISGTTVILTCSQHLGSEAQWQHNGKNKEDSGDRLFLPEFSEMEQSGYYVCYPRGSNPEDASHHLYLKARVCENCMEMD
T1 chain 2: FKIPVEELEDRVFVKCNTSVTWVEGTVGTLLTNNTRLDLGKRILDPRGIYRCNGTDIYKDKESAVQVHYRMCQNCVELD
Test: BLI (Octet), IgG on AHC sensor, pH 6.0
Recorded metric: koff (s⁻¹)
All answers are understood in s⁻¹, so give the number only.

Binder: SAD10319_P03_G08 (ADI-48638) (antibody, V domains shown, IgG; also called Ab22) VH: QVQLVQSGAEVKKPGASVKVSCKASGYTFSSYDMHWVRQAPGQRLEWMGWIDAGTGFTKYSQKFQGRVTITRDTSASTAYMELSSLRSEDTAVYYCARDAYGHYFYDHWGQGTLVTVSS VL: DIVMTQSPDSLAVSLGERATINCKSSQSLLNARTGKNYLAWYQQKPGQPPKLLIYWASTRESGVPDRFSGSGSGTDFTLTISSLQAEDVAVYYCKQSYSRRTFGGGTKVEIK
Unit abbreviation: s⁻¹
koff: 0.0168

Binder: SAD10319_P05_D01 (ADI-57406) (antibody, V domains shown, IgG; also called Ab133) VH: QVQLVQSGAEVKKPGASVKVSCKASGYTFTEYDMHWVRQAPGQTLEWMGWIDAGTGATVYSQKFQGRVTITRDTSASTAYMELSSLRSEDTAVYYCARDAYGRYFYDHWGQGTLVTVSS VL: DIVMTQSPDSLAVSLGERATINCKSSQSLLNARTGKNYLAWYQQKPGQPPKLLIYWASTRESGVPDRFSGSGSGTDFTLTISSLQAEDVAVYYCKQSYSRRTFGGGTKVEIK
Unit abbreviation: s⁻¹
koff: 0.00929

Binder: SAD10319_P01_E02 (ADI-57304) (antibody, V domains shown, IgG; also called Ab240) VH: QVQLVQSGAEVKKPGASVKVSCKASGYTFTSDFMHWVRQAPGQRLEWMGWINPATGATKYSQKFQGRVTITRDTSASTAYMELSSLRSEDTAVYYCARDAYGHYFYDHWGQGTLVTVSS VL: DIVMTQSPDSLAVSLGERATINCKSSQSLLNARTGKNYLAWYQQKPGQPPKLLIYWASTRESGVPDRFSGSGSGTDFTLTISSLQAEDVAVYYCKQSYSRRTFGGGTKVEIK
Unit abbreviation: s⁻¹
koff: 0.0248

Binder: SAD10319_P01_G01 (ADI-57300) (antibody, V domains shown, IgG; ADI-57300 is also printed for Ab28; also called Ab234) VH: QVQLVQSGAEVKKPGASVKVSCKASGYTFTSADMHWVRQAPGQRLQPMGWINAGTGATKYSQKFQGRVTITRDTSANTAYMELSSLRSEDTAVYYCARDAYGRYFYDVWGQGTLVTVSS VL: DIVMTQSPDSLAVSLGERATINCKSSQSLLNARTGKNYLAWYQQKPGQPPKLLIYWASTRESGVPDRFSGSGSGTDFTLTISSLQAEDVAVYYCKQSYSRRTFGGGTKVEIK
Unit abbreviation: s⁻¹
koff: 0.00249

Now, please, on to the next binder.
Q: Give a short answer stating reported koff for SAD10319_P05_H06 (ADI-57417) (antibody, V domains shown, IgG; also called Ab145) VH: QVQLVQSGAEVKKPGASVKVSCKASGYTFTEYDMHWVRQAPGPTLEWMGWIDAGTGATVYSQKFQGRVTITRDTSASTAYMELSSLRSEDTAVYYCARDAYGRYFYDHWGQGTLVTVSS VL: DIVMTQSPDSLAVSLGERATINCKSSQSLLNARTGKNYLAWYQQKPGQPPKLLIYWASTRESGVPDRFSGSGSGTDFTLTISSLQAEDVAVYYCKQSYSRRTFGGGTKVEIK .
Result: 0.0104
